Let's go through some recorded IC50 values for Histone deacetylase 1 (Homo sapiens) together.

Worked cases, IC50 given:
| structure smiles | experimental system | reported metric | value measured |
| --- | --- | --- | --- |
| O=C(c1ccc(-c2ccccn2)s1)C(F)(F)F | Histone deacetylase 1 (Homo sapiens) | IC50 | > 1 µM |
| CC(=O)c1ccc(-c2ccc(C(=O)C(F)(F)F)s2)cc1 | Histone deacetylase 1 (Homo sapiens) | IC50 | > 10 µM |

Consider the additional compound presented here.
[Q] # value lookup — system Histone deacetylase 1 (Homo sapiens), readout IC50, item O=C(c1cc(-c2ccccc2)cs1)C(F)(F)F
[A] > 10 µM
